Values compiled from ChEMBL document CHEMBL3832034.

assay: Evaluation of pharmacokinetic parameters for Lidocaine, and Prilocaine following intravenous (IV) administration of Lidocaine or application of a cream.; type: ADME, organism-based; conditions: human, in vivo; dosed compound id 50, dosed compound name PRILOCAINE, route iv, tissue Plasma; read-out: Vss
metric name: Vd (L/kg)
Answers are plain numbers, in L/kg.

Ask | Read off the recorded Vd for CCCNC(C)C(=O)Nc1ccccc1C (stereo unspecified)
Reply | 2.6

###

test system: Homo sapiens; assay: Pharmacokinetic parameters for Lidocaine, and Prilocaine after topical administration of EMLA cream intact skin on the lateral thighs, vaginal fornices and penile skin of subjects; format: ADME, organism-based; parameters: dose 1.5 g, route topical; settings: in vivo, topical_or_ocular, dose 0.5 to 3.3 g, dosed compound id 50, dosed compound name PRILOCAINE, gender female, regimen Single dose, route topical, study dosing duration 10 to 60 minutes, tissue Plasma
metric name: Tmax

Ask | # assay system Homo sapiens: give Tmax of CCCNC(C)C(=O)Nc1ccccc1C (stereo unspecified)
Reply | 21 to 95 min

###

test system: Homo sapiens; experiment: Pharmacokinetic parameters for Lidocaine, and Prilocaine after topical administration of EMLA cream intact skin on the lateral thighs, vaginal fornices and penile skin of subjects; format: ADME, organism-based; set-up: dose 1.5 g, route topical; conditions: in vivo, topical_or_ocular, dose 0.5 to 3.3 g, dosed compound id 50, dosed compound name PRILOCAINE, gender female, regimen Single dose, route topical, study dosing duration 10 to 60 minutes, tissue Plasma
metric name: C

Ask | Read off the recorded C for CCCNC(C)C(=O)Nc1ccccc1C (stereo unspecified)
Reply | 40 to 346 ng/mL

###

test: Evaluation of pharmacokinetic parameters for Lidocaine, and Prilocaine following intravenous (IV) administration of Lidocaine or application of a cream.; format: ADME, organism-based; conditions: human, topical or ocular; dosed compound id 50, dosed compound name PRILOCAINE, route topical, tissue Plasma; read-out: Protein binding (converted)
metric name: fraction unbound

Ask | Read off the recorded fraction unbound for CCCNC(C)C(=O)Nc1ccccc1C (stereo unspecified)
Reply | 0.45
